# Test system: MCF7
# assay details: Growth inhibition of human mammary carcinoma (MCF-7) cell line
# Type: functional, cell-based
pIC50: −log10 of the molar value.
measured quantity: pIC50

{"compound": "C/C=C/C(=O)O[C@H]1C(=O)[C@@]2(C)C([C@H](OC(=O)c3ccccc3)[C@]34OC(=O)O[C@H]3[C@H](OC(=O)[C@H](O)[C@H](C=C(C)C)NC(=O)CCCCC)C(C)=C1C4(C)C)[C@]1(OC(C)=O)COC1C[C@@H]2O (some centres undefined)", "pIC50": 8.68}

P = CCCCCC(=O)N[C@@H](C=C(C)C)[C@@H](O)C(=O)O[C@@H]1C(C)=C2[C@@H](OC(=O)N(C)C)C(=O)[C@@]3(C)C([C@H](OC(=O)c4ccccc4)[C@@]4(OC(=O)O[C@@H]14)C2(C)C)[C@]1(OC(C)=O)COC1C[C@@H]3O (some centres undefined)
Q = CC(=O)O[C@@]12COC1C[C@H](O)[C@@]1(C)C(=O)[C@H](OC(=O)N(C)C)C3=C(C)[C@@H](OC(=O)[C@H](O)[C@H](C=C(C)C)NC(=O)OC(C)(C)C)[C@@H]4OC(=O)O[C@]4([C@@H](OC(=O)c4ccccc4)C21)C3(C)C (some centres undefined)
R = CC(=O)O[C@@]12COC1C[C@H](O)[C@@]1(C)C(=O)[C@H](O)C3=C(C)[C@@H](OC(=O)[C@H](O)[C@H](CC(C)(C)C)NC(=O)OC(C)(C)C)[C@@H]4OC(=O)O[C@]4([C@@H](OC(=O)c4ccccc4)C21)C3(C)C (some centres undefined)
Ascending by pIC50, please: list the compounds accordingly. When ranking, write the labels in the order the request describes.
R, P, Q
